A collection of compounds and their measured %Inh
- System: EIF2AK1;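 also: KINOMEscan kinase panel screen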
- condition: concentration: 1 μM, replicates: in singlicate; n = 1
propertyLabel: %Inh (%)

[[record]]
compoundstring = "O=C1Cc2cc(Nc3nc(NCc4cccc(S(=O)(=O)C(F)(F)F)c4)ncc3C(F)(F)F)ccc2N1"
testedsystem = "EIF2AK1"
propertylabel = "%Inh"
resultunit = "%"
value = 0

[[record]]
compoundstring = "CN1c2ccc(CNc3ccc(F)cc3)cc2-c2c(cnn2C)S1(=O)=O"
testedsystem = "EIF2AK1"
propertylabel = "%Inh"
resultunit = "%"
value = 0

[[record]]
compoundstring = "[2H]C([2H])(c1cccc(C(F)(F)F)c1C)n1ccn2c(=O)nc(N3CCOCC3)cc12"
testedsystem = "EIF2AK1"
propertylabel = "%Inh"
resultunit = "%"
value = 0

